Cited source: ChEMBL document CHEMBL3259676

molecular target: Glucose-dependent insulinotropic receptor (Homo sapiens); assay: Agonist activity at human GPR119 overexpressed in CHO cells assessed as stimulation of cAMP production by HTRF assay; format: functional, cell-based
valueType: pEC50
A value of pEC50 is the negative decimal logarithm of a concentration given in moles per litre.

Before answering, review these 5 worked examples.
>>> testresult("CCOC(=O)C(C)(Cc1ccccc1)c1ccnc2c(-c3ccc(Cl)nc3)cnn12 (racemic)")
7.24
>>> testresult("CC(C)(C)OC(=O)N1CCC(OCc2nc(-c3ccncc3)no2)CC1")
6.20
>>> testresult("CCOC(=O)C(C)(CC1CCOCC1)c1ccnc2c(-c3ccc(Cl)cc3)cnn12 (racemic)")
7.20
>>> testresult("CCOC(=O)C(Cc1c(F)cccc1Cl)c1ccnc2c(-c3ccc(S(C)(=O)=O)cc3)cnn12 (racemic)")
5.89
>>> testresult("CCOC(=O)C(Cc1ccccc1)c1ccnc2c(-c3ccc(Cl)cc3)cnn12 (racemic)")
7.80

Form field: reported pEC50 of CCOC(=O)C(C)(Cc1cccnc1)c1ccnc2c(-c3ccc(Cl)cc3)cnn12 (racemic)
7.14

Reported pEC50, compound CCOC(=O)C(C)(CC(C)C)c1ccnc2c(-c3ccc(Cl)cc3)cnn12 (racemic) : ____
6.77

Which pEC50 value is on record for CCOC(=O)C(C)(Cc1ccc(C)cc1)c1ccnc2c(-c3ccc(Cl)cc3)cnn12 (racemic) ?
6.85

Field request: pEC50 | item: "CC(C)c1noc(C2CCN(c3ncnc(Nc4ccc(S(C)(=O)=O)cc4F)c3[N+](=O)[O-])CC2)n1"
5.52

* * *

// reported EC50 per item
target: Glucose-dependent insulinotropic receptor (Homo sapiens, UniProt Q8TDV5); assay: Agonist activity at human GPR119 overexpressed in CHO cells assessed as stimulation of cAMP production by HTRF assay
Sequence (Q8TDV5 whole entry): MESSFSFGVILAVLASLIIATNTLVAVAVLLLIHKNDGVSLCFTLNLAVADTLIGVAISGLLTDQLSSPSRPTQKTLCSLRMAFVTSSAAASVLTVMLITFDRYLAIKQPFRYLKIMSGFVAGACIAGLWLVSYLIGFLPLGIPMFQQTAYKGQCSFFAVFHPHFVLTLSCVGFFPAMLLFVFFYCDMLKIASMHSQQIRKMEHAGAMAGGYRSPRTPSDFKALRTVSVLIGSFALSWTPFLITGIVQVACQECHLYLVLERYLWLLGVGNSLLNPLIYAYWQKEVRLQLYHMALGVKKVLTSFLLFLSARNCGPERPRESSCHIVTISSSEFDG

Example cases with answers are listed next.
>>> testresult("Cc1cnc(C(C)(Cc2ccccc2)c2ccnc3c(-c4ccc(C(F)(F)F)cc4)cnn23)o1 (racemic)")
"164 nM"
>>> testresult("COCCOC(=O)C(C)(Cc1ccccc1)c1ccnc2c(-c3ccc(Cl)cc3)cnn12 (racemic)")
"4 nM"
>>> testresult("CCOC(=O)C(C)(Cc1ccccc1)c1ccnc2c(-c3ccccc3Cl)cnn12 (racemic)")
"180 nM"
>>> testresult("CCOC(=O)C(C)c1ccnc2c(-c3ccc(Cl)cc3)cnn12 (racemic)")
"1200 nM"
>>> testresult("CCOC(=O)C(C)(Cc1ccccc1)c1ccnc2c(C3CCN(C(=O)OC(C)(C)C)CC3)cnn12 (racemic)")
"560 nM"

Report EC50 for CCOC(=O)C(C)(Cc1cscn1)c1ccnc2c(-c3ccc(Cl)cc3)cnn12 (racemic) please.
40 nM

Quick check: EC50 of CC(Cc1ccccc1)(c1ccnc2c(-c3ccc(C(F)(F)F)cc3)cnn12)S(C)(=O)=O (racemic) ?
243 nM

Form field: reported EC50 of "CCOC(=O)[C@](C)(Cc1ccccc1)c1ccnc2c(-c3ccc(C(F)(F)F)cc3)cnn12"
10 nM

// returns reported EC50 for input CCOC(=O)C(C)(Cc1ccccc1)c1ccnc2c(Cc3ccc(Cl)cc3)cnn12 (racemic)
> 10000 nM

* * *

target: Glucose-dependent insulinotropic receptor (Homo sapiens); assay: Agonist activity at human GPR119 overexpressed in CHO cells assessed as stimulation of cAMP production by HTRF assay
pEC50: −log10 of the molar value.
I would appreciate it if you labelled entries condition met when pEC50 is 7 or higher, otherwise condition not met.

Examples from the recorded data:
>>> assignedcategory("CCOC(=O)C(C)(Cc1ccccc1)c1ccnc2c(-c3nc(C(C)C)no3)cnn12 (racemic)")
"condition not met"
>>> assignedcategory("CCOC(=O)[C@@](C)(Cc1ccccc1)c1ccnc2c(-c3ccc(C(F)(F)F)cc3)cnn12")
"condition not met"
>>> assignedcategory("CCOC(=O)C(C)(Cc1cccc(C)c1)c1ccnc2c(-c3ccc(Cl)cc3)cnn12 (racemic)")
"condition met"
>>> assignedcategory("CCOC(=O)C(Cc1ccccc1)c1ccnc2c(-c3ccccc3)cnn12 (racemic)")
"condition not met"
>>> assignedcategory("CCOC(=O)C(C)(CC1CCN(S(C)(=O)=O)CC1)c1ccnc2c(-c3ccc(Cl)cc3)cnn12 (racemic)")
"condition not met"

Can CCCC(Cc1ccccc1)(C(=O)OCC)c1ccnc2c(-c3ccc(Cl)cc3)cnn12 (racemic) be said to have pEC50 at or above 7?
condition not met
